# System: HCV NS5B polymerase 1a-H77-C316Y
# experimentSummary: biochemical
# Set-up: species or system HCV genotype 1a
# recordedConditions: ratio of enzyme IC50s, 1a H77-C316Y / 1a H77
readoutKind: C316Y/1a Fold Resistance
Hey, just the number and the unit after it is fine.

{"columns": ["compound", "recordedResult"],
 "data": [
  ["CS(=O)(=O)N(CCCc1noc(=S)[nH]1)c1cc2oc(-c3ccc(F)cc3)c(-c3ncc[nH]3)c2cc1C1CC1", "10 fold"]
]}

Problem: Given the compound CS(=O)(=O)CCCCN(c1cc2oc(-c3ccc(F)cc3)c(C3=NOCCN3)c2cc1C1CC1)S(C)(=O)=O , what is its reported C316Y/1a Fold Resistance?
Solution: 7 fold

Problem: Returns the measured C316Y/1a Fold Resistance for the input compound. Input: CS(=O)(=O)Nc1cc2oc(-c3ccc(F)cc3)c(-c3ncc[nH]3)c2cc1C1CC1
Solution: 304 fold

Problem: Give the measured C316Y/1a Fold Resistance of CS(=O)(=O)N(CCCS(=O)(=O)N1CCOCC1)c1cc2oc(-c3ccc(F)cc3)c(-c3ncc[nH]3)c2cc1C1CC1 .
Solution: 26 fold

Problem: Quick one: C316Y/1a Fold Resistance of Cc1c[nH]c(-c2c(-c3ccc(F)cc3)oc3cc(N(CCCCO)S(C)(=O)=O)c(C4CC4)cc23)n1 ?
Solution: 6 fold

Problem: Suppose we examine the compound CS(=O)(=O)N(CCC/C(N)=N/O)c1cc2oc(-c3ccc(F)cc3)c(-c3ncc[nH]3)c2cc1C1CC1 ; what C316Y/1a Fold Resistance value has been reported?
Solution: 27 fold

Problem: C316Y/1a Fold Resistance lookup needed for CC(C)(O)C(=O)CCN(c1cc2oc(-c3ccc(F)cc3)c(-c3ncc[nH]3)c2cc1C1CC1)S(C)(=O)=O , thanks.
Solution: 14 fold

Problem: What does the record list as C316Y/1a Fold Resistance for CC1NC(c2c(-c3ccc(F)cc3)oc3cc(N(CCCCO)S(C)(=O)=O)c(C4CC4)cc23)=NO1 (stereo not drawn) ?
Solution: 5 fold

Problem: Fill in the blank: the reported C316Y/1a Fold Resistance of CCS(=O)(=O)CCCN(c1cc2oc(-c3ccc(F)cc3)c(C3=NOCCN3)c2cc1C1CC1)S(C)(=O)=O is ____.
Solution: 8 fold

Problem: Name the recorded C316Y/1a Fold Resistance for CS(=O)(=O)N(CC1CCCO1)c1cc2oc(-c3ccc(F)cc3)c(-c3ncc[nH]3)c2cc1C1CC1 (stereo not drawn) .
Solution: 247 fold

Problem: Which measured C316Y/1a Fold Resistance value corresponds to CCN(c1cc2oc(-c3ccc(F)cc3)c(-c3ncc[nH]3)c2cc1C1CC1)S(C)(=O)=O ?
Solution: 64 fold

Problem: Fill in: C316Y/1a Fold Resistance of CS(=O)(=O)N(CCCCO)c1cc2oc(-c3ccc(F)cc3)c(-c3ncc[nH]3)c2cc1C1CC1 is ___
Solution: 14 fold

Problem: Could you share which C316Y/1a Fold Resistance value was measured for CC(O)CCCN(c1cc2oc(-c3ccc(F)cc3)c(-c3ncc[nH]3)c2cc1C1CC1)S(C)(=O)=O (stereo not drawn) ?
Solution: 15 fold

Problem: Name the reported C316Y/1a Fold Resistance value associated with the compound COc1ccc(CN(c2cc3oc(-c4ccc(F)cc4)c(C4=NOCN4)c3cc2C2CC2)S(C)(=O)=O)cc1
Solution: 333 fold

Problem: For CS(=O)(=O)N(CC(N)=O)c1cc2oc(-c3ccc(F)cc3)c(-c3ncc[nH]3)c2cc1C1CC1 , what is its reported C316Y/1a Fold Resistance?
Solution: 428 fold

* * *

# Test system: HCV 1a-H77 subgenomic replicon
# experimentSummary: microbe, parasite or virus in culture
# Assay type: cell-based, HCV genotype 1a
# recordedConditions: Hepatitis C virus, stable replicon, 5% FBS, absence of human plasma; read-out: Stable Replicon 1a H77 5% FBS EC50
# Lookup of reported EC50 keyed by entry
Answer with a number only, understood to be in nM.

Some molecules with recorded EC50:
{"columns": ["molecule", "unitInfo", "recordedResult"],
 "data": [
  ["CS(=O)(=O)N(CCCC#N)c1cc2oc(-c3ccc(F)cc3)c(-c3ncc[nH]3)c2cc1C1CC1 [Example 49]", "nM", 3.7],
  ["CS(=O)(=O)N(CC(N)=O)c1cc2oc(-c3ccc(F)cc3)c(-c3ncc[nH]3)c2cc1C1CC1 [Example 36]", "nM", 301],
  ["CS(=O)(=O)CCN(c1cc2oc(-c3ccc(F)cc3)c(-c3ncc[nH]3)c2cc1C1CC1)S(C)(=O)=O [Example 87]", "nM", 7.6]
]}

Read the next record carefully.
Problem: # EC50 lookup, item CS(=O)(=O)N(CCc1csc(N)n1)c1cc2oc(-c3ccc(F)cc3)c(-c3ncc[nH]3)c2cc1C1CC1 [Example 97]
Solution: 108

* * *

# Test system: HCV 1a-H77 subgenomic replicon
# experimentSummary: microbe, parasite or virus in culture
# Type: cell-based, HCV genotype 1a
# recordedConditions: Hepatitis C virus, stable replicon, strain 1a H77, 5% FBS, no human plasma; read-out: 1a H77 5% FBS EC50
# label = Criterion met if EC50 < 0.04 µM else Criterion not met

For orientation, consider the following solved cases.
{"columns": ["compound", "targetDesc", "assignedLabel"],
 "data": [
  ["CS(=O)(=O)N(CCCc1nsc(=O)[nH]1)c1cc2oc(-c3ccc(F)cc3)c(-c3ncc[nH]3)c2cc1C1CC1", "HCV 1a-H77 subgenomic replicon", "Criterion not met"],
  ["CS(=O)(=O)N(CC1CC1)c1cc2oc(-c3ccc(F)cc3)c(-c3ncc[nH]3)c2cc1C1CC1", "HCV 1a-H77 subgenomic replicon", "Criterion not met"],
  ["CS(=O)(=O)N(CCCC(F)(F)F)c1cc2oc(-c3ccc(F)cc3)c(-c3ncc[nH]3)c2cc1C1CC1", "HCV 1a-H77 subgenomic replicon", "Criterion met"]
]}

Problem: Answer whether the compound Cc1ncsc1CCN(c1cc2oc(-c3ccc(F)cc3)c(-c3ncc[nH]3)c2cc1C1CC1)S(C)(=O)=O has EC50 strictly less than 0.04 µM
Solution: Criterion met

Problem: Does this compound meet the criterion EC50 < 0.04 µM? CS(=O)(=O)N(CCCS(N)(=O)=O)c1cc2oc(-c3ccc(F)cc3)c(C3=NOCCN3)c2cc1C1CC1
Solution: Criterion not met

Problem: EC50 under 0.04 µM? Item: CS(=O)(=O)N(CCCC(=O)O)c1cc2oc(-c3ccc(F)cc3)c(C3=NOCN3)c2cc1C1CC1
Solution: Criterion not met

Problem: Hello, I'm reviewing records and need to know if EC50 of CS(=O)(=O)N(CCCCCO)c1cc2oc(-c3ccc(F)cc3)c(C3=NOCCN3)c2cc1C1CC1 is below 0.04 µM. Could you check?
Solution: Criterion met

* * *

Measured pEC50, listed per entry.
# Test system: HCV 1b-BB7 subgenomic replicon
# experimentSummary: microbe, parasite or virus in culture
# Assay type: cell-based, HCV genotype 1b
# recordedConditions: Hepatitis C virus, stable replicon, strain 1b BB7, 5% FBS, no human plasma; read-out: 1b BB7 5% FBS EC50
# reply with the number alone; pEC50 is -log10 of concentration in mol/L

{"columns": ["molecule", "pEC50"],
 "data": [
  ["CS(=O)(=O)N(CCC(O)CO)c1cc2oc(-c3ccc(F)cc3)c(-c3ncc[nH]3)c2cc1C1CC1 (stereo not shown)", 7.78],
  ["CS(=O)(=O)N(CCN)c1cc2oc(-c3ccc(F)cc3)c(-c3ncc[nH]3)c2cc1C1CC1", 7.39],
  ["CS(=O)(=O)CCCN(c1cc2oc(-c3ccc(F)cc3)c(-c3ncc[nH]3)c2cc1C1CC1)S(C)(=O)=O", 8.23]
]}

Problem: Identify the measured pEC50 of COc1ccc(CN(c2cc3oc(-c4ccc(F)cc4)c(C4=NOCN4)c3cc2C2CC2)S(C)(=O)=O)cc1 for HCV 1b-BB7 subgenomic replicon.
Solution: 7.10

Problem: // lookup pEC50 | system=HCV 1b-BB7 subgenomic replicon | key= CCS(=O)(=O)CCCN(c1cc2oc(-c3ccc(F)cc3)c(C3=NOCCN3)c2cc1C1CC1)S(C)(=O)=O
Solution: 7.92

Problem: // fetch HCV 1b-BB7 subgenomic replicon pEC50 for CC(=O)CCCN(c1cc2oc(-c3ccc(F)cc3)c(-c3ncc[nH]3)c2cc1C1CC1)S(C)(=O)=O
Solution: 8.31

Problem: Notebook entry, HCV 1b-BB7 subgenomic replicon assay: pEC50 of Cc1ncsc1CCN(c1cc2oc(-c3ccc(F)cc3)c(-c3ncc[nH]3)c2cc1C1CC1)S(C)(=O)=O = ?
Solution: 7.80

* * *

List of pEC50 values.
# System: HCV 1b-BB7 subgenomic replicon
# experimentSummary: microbe, parasite or virus in culture
# Type: cell-based, HCV genotype 1b
# recordedConditions: Hepatitis C virus, stable replicon, strain 1b BB7, 5% FBS; read-out: 1b BB7 5% FBS EC50
# pEC50 = -log10(concentration in molar units)

{"columns": ["molecule", "pEC50"],
 "data": [
  ["CS(=O)(=O)N(CCCN1CCCCC1)c1cc2oc(-c3ccc(F)cc3)c(C3=NOCCN3)c2cc1C1CC1 [Example 130]", 7.59],
  ["CS(=O)(=O)N(CCc1csc(N)n1)c1cc2oc(-c3ccc(F)cc3)c(-c3ncc[nH]3)c2cc1C1CC1 [Example 97]", 7.21],
  ["CS(=O)(=O)N(CCCc1nsc(=O)[nH]1)c1cc2oc(-c3ccc(F)cc3)c(-c3ncc[nH]3)c2cc1C1CC1 [Example 178]", 7.74],
  ["CS(=O)(=O)N(CCCS(=O)(=O)c1ccccc1)c1cc2oc(-c3ccc(F)cc3)c(-c3ncc[nH]3)c2cc1C1CC1 [Example 90]", 8.22],
  ["CS(=O)(=O)N(CCCC(F)(F)F)c1cc2oc(-c3ccc(F)cc3)c(C3=NOCCN3)c2cc1C1CC1 [Example 117]", 7.52]
]}

Problem: pEC50 lookup needed for C[S+]([O-])c1ccc(-c2ncc(CN(c3ccc4c(-c5ncc[nH]5)c(-c5ccccc5)oc4c3)S(C)(=O)=O)s2)cc1 (stereo not shown) [Example 24] , thanks.
Solution: 7.91

Problem: Requested field: pEC50. Item: CS(=O)(=O)N(CCCN1CCCC1)c1cc2oc(-c3ccc(F)cc3)c(C3=NOCCN3)c2cc1C1CC1 [Example 132]
Solution: 7.40
